assay: in vivo; details: rat, plasma, intravenous, 2 nmol/kg
Reported endpoint: AUC(0-inf) (nM·h)
Respond with the bare value in nM·h.

q: Name the recorded AUC(0-inf) for CCCCCC(=O)N[C@H]1CSCc2cc(CSCCNC(=O)CN3CCN(CC(=O)O)CCN(CC(=O)O)CCN(CC(=O)O)CC3)cc(c2)CSC[C@@H](C(=O)O)NC(=O)[C@H](Cc2ccccc2)NC(=O)[C@H](CCC(N)=O)NC(=O)[C@H]([C@@H](C)O)NC(=O)[C@@H]2CCCN2C(=O)[C@@H]2CCCN2C1=O [3BP-3554] .
a: 8.1

----------
target: FAP-expressing human WI-38 fibroblasts (Homo sapiens); construct: FAP-expressing human WI-38 fibroblasts (ECACC) were cultured in EMEM; host or cells: WI-38 human fibroblasts; assay: Competitive FACS binding assay; conditions: pIC50 Category (FACS), competition with 3 nM Cy5-labeled compound, WI-38 fibroblasts, 4° C., 1 hour
Sequence (Q12884 whole entry): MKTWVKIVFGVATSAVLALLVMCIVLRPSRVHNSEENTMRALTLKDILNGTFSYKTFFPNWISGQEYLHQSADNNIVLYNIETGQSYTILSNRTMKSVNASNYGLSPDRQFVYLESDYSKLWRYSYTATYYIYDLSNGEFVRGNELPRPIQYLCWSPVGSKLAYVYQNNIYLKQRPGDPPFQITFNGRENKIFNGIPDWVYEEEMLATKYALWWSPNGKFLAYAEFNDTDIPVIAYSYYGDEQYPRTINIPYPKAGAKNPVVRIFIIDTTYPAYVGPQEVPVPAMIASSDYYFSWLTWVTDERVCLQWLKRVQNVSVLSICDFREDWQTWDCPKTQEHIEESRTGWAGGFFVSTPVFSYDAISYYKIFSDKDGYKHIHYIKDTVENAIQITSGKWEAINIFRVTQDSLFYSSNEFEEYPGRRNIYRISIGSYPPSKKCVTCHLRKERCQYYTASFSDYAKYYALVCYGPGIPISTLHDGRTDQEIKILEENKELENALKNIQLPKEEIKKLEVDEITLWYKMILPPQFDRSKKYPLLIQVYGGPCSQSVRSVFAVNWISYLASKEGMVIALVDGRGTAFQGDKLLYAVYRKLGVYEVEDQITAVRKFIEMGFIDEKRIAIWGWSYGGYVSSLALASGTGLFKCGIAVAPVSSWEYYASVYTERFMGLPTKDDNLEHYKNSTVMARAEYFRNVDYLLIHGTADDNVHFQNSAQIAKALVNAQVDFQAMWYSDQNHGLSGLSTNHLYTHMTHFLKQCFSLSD
pIC50: −log10 of the molar value. Numbered stars: 1 amine (or outer) side, 2 acyl side, 3 side chain; on linkers, the order of the positions; unused ones are H or OH. Bridge positions count the residues as written; N and C are the ends. Peptide text beside a SMILES is read from it. * marks the point of attachment. X47 = O=C(O)CN1CCN(CC(=O)O)CCN(CC(=O)NCCCCCNC(=O)CCC(=O)NCCCOCCOCCOCCCN*)CCN(CC(=O)O)CC1; mXylylene = c1cc(C[*:1])cc(C[*:2])c1; Hexanoyl = CCCCCC(=O)*
Reported endpoint: pIC50

q: Name the recorded pIC50 for CC(C)C[C@H](NC(=O)CCC(=O)NCCCOCCOCCOCCOCCCNC(=O)CN1CCN(CC(=O)O)CCN(CC(=O)O)CCN(CC(=O)O)CC1)C(=O)N[C@H]1CSCc2cccc(c2)CSC[C@@H](C(=O)N[C@@H](CC(=O)O)C(=O)N[C@@H](Cc2c[nH]cn2)C(=O)N[C@@H](Cc2ccccc2)C(=O)N[C@@H](CCCNC(=N)N)C(=O)N[C@@H](CC(=O)O)C(N)=O)NC(=O)[C@H](Cc2ccccc2)NC(=O)[C@H](CCC(=O)O)NC(=O)[C@H]2NC(=O)[C@@H]3C(CCN3C(=O)[C@@H]3CCCN3C1=O)[C@H]2O .
a: > 8.00

q: Name the recorded pIC50 for CCCC[C@H](NC(=O)CCC(=O)NCCCOCCOCCOCCCNC(=O)CN1CCN(CC(=O)O)CCN(CC(=O)O)CCN(CC(=O)O)CC1)C(=O)N[C@H]1CSCc2cccc(c2)CSC[C@@H](C(=O)NCCC(=O)O)NC(=O)[C@H](Cc2ccccc2)NC(=O)[C@H](CCC(N)=O)NC(=O)[C@H]([C@@H](C)O)NC(=O)[C@@H]2CCCN2C(=O)[C@@H]2CCCN2C1=O .
a: > 8.00

q: Name the recorded pIC50 for CCCCCC(=O)N[C@H]1CSCc2cccc(c2)CSC[C@@H](C(=O)N[C@@H](CC(=O)O)C(=O)NCCCOCCOCCOCCCNC(=O)CCC(=O)NCCCCCNC(=O)CN2CCN(CC(=O)O)CCN(CC(=O)O)CCN(CC(=O)O)CC2)NC(=O)[C@H](Cc2ccccc2)NC(=O)[C@H](CCC(N)=O)NC(=O)[C@H]([C@@H](C)O)NC(=O)[C@@H]2CCCN2C(=O)[C@@H]2CCCN2C1=O [3BP-3404] (Hexanoyl-CPPTQFCD-X47; linker 1-7 via mXylylene) .
a: > 8.00

----------
Field: IC50. Provide a value for each of the molecules that follow.
target: Human recombinant FAP (Homo sapiens); experiment: FRET-based FAP protease activity assay; format: biochemical; set-up: purchased R&D systems 3715-SE; details: pIC50 Category (Activity), recombinant human FAP, FRET substrate, 37° C.
Numbered stars: 1 amine (or outer) side, 2 acyl side, 3 side chain; on linkers, the order of the positions; unused ones are H or OH. Bridge positions count the residues as written; N and C are the ends. Square brackets hold non-standard residues; d marks the D form. Peptide text beside a SMILES is read from it. * marks the point of attachment. DOTA = O=C(O)CN1CCN(CC(=O)O)CCN(CC(=O)*)CCN(CC(=O)O)CC1; mXylylene = c1cc(C[*:1])cc(C[*:2])c1; 4Amb = NCc1ccc(C(=O)O)cc1; Hexanoyl = CCCCCC(=O)*

q: Name the recorded IC50 for CSCC[C@H](NC(=O)CN1CCN(CC(=O)O)CCN(CC(=O)O)CCN(CC(=O)O)CC1)C(=O)N[C@H]1CSCc2cccc(c2)CSC[C@@H](C(=O)N[C@@H](CC(=O)O)C(=O)N[C@@H](Cc2c[nH]cn2)C(=O)N[C@@H](Cc2ccccc2)C(=O)N[C@@H](CCCNC(=N)N)C(=O)N[C@@H](CC(=O)O)C(N)=O)NC(=O)[C@H](Cc2ccccc2)NC(=O)[C@H](CCC(=O)O)NC(=O)[C@H]([C@@H](C)O)NC(=O)[C@@H]2CCCN2C(=O)[C@@H]2CCCN2C1=O [3BP-3170] ({DOTA}-MCPPTEFCDHFRD-NH2; linker 2-8 via mXylylene) .
a: 100 to 794 nM

q: Name the recorded IC50 for CCCCCC(=O)N[C@H]1CSCc2cccc(c2)CSC[C@@H](C(=O)N[C@@H](CC(=O)O)C(=O)NCc2ccc(C(=O)N[C@@H](CCCNC(=N)N)C(N)=O)cc2)NC(=O)[C@H](Cc2ccccc2)NC(=O)[C@H](CCC(=O)O)NC(=O)[C@H]([C@@H](C)O)NC(=O)[C@@H]2CCCN2C(=O)[C@@H]2CCCN2C1=O [3BP-3301] (Hexanoyl-CPPTEFCD[4Amb]R-NH2; linker 1-7 via mXylylene) .
a: < 10 nM

q: Name the recorded IC50 for CCCCCC(=O)N[C@H]1CSCc2cc(CSCCNC(=O)CN3CCN(CC(=O)O)CCN(CC(=O)O)CCN(CC(=O)O)CC3)cc(c2)CSC[C@@H](C(=O)O)NC(=O)[C@H](Cc2cccc3ccccc23)NC(=O)[C@H](CCC(N)=O)NC(=O)[C@H]([C@@H](C)O)NC(=O)[C@@H]2CCCN2C(=O)[C@@H]2CCCN2C1 .
a: < 10 nM

----------
biological target: FAP-expressing human WI-38 fibroblasts (Homo sapiens); construct: FAP-expressing human WI-38 fibroblasts (ECACC) were cultured in EMEM; host or cells: WI-38 human fibroblasts; assay: Competitive FACS binding assay; conditions: pIC50 Category (FACS), competition with 3 nM Cy5-labeled compound, 4° C., 1 hour
pIC50: −log10 of the molar value. Numbered stars: 1 amine (or outer) side, 2 acyl side, 3 side chain; on linkers, the order of the positions; unused ones are H or OH. Bridge positions count the residues as written; N and C are the ends. Square brackets hold non-standard residues; d marks the D form. Peptide text beside a SMILES is read from it. * marks the point of attachment. X7 = O=C(CN1CCN2CCN3CCN(CC1)CC(=O)[O][In]([O]C(=O)C2)[O]C(=O)C3)NCCSCc1cc(C[*:1])cc(C[*:2])c1; mXylylene = c1cc(C[*:1])cc(C[*:2])c1; PEG6 = NCCOCCOCCOCCOCCOCCOCCC(=O)O; X18 = NCCNCC(CNCCN)C(=O)*; Nle = CCCC[C@H](N)C(=O)O; Hexanoyl = CCCCCC(=O)*
Field: pIC50. Provide a value for each of the compounds that follow.

q: Checklist item: pIC50 tested on FAP-expressing human WI-38 fibroblasts (Homo sapiens), entry CCCCCC(=O)N[C@H]1CSCc2cc(CSCCNC(=O)CN3CCN4CCN5CCN(CC3)CC(=O)[O][In]([O]C(=O)C4)[O]C(=O)C5)cc(c2)CSC[C@@H](C(=O)NCC(=O)O)NC(=O)[C@H](Cc2ccccc2)NC(=O)[C@H](CCC(N)=O)NC(=O)[C@H]([C@@H](C)O)NC(=O)[C@@H]2CCCN2C(=O)[C@@H]2CCCN2C1=O [3BP-3714] (Hexanoyl-CPPTQFCG-OH; linker 1-7 via X7) , value?
a: > 8.00

q: Checklist item: pIC50 tested on FAP-expressing human WI-38 fibroblasts (Homo sapiens), entry CCCCCC(=O)N[C@H]1CSCc2cc(cc(CN3CCNCC3)c2)CSC[C@@H](C(=O)O)NC(=O)[C@H](Cc2ccccc2)NC(=O)[C@H](CCC(N)=O)NC(=O)[C@H]([C@@H](C)O)NC(=O)[C@@H]2CCCN2C(=O)[C@@H]2CCCN2C1=O [3BP-4181] , value?
a: 7.10 to 8.00

q: Checklist item: pIC50 tested on FAP-expressing human WI-38 fibroblasts (Homo sapiens), entry CCCC[C@H](NC(=O)CCOCCOCCOCCOCCOCCOCCNC(=O)C(CNCCN)CNCCN)C(=O)N[C@H]1CSCc2cccc(c2)CSC[C@@H](C(=O)O)NC(=O)[C@H](Cc2ccccc2)NC(=O)[C@H](CCC(=O)O)NC(=O)[C@H]([C@@H](C)O)NC(=O)[C@@H]2CCCN2C(=O)[C@@H]2CCCN2C1=O [3BP-4221] ({X18-PEG6}-[Nle]CPPTEFC-OH; linker 2-8 via mXylylene) , value?
a: 7.10 to 8.00

src = patent US20220315554A1
